Catalogue of molecules with associated IC50
target: human P2X7 receptor (Homo sapiens, UniProt Q99572, R270H/Y155H); test: Evaluation of human P2X7 receptor inhibitory activity (Yo-Pro uptake, BzATP stimulation, FLIPR TETRA); type: cell-based; conditions: 1321N1 cells stably expressing human P2X7 receptor; BzATP stimulation, Yo-Pro uptake; read-out: IC50 (antagonistic activity for the human P2X7 receptor), class symbol
Readout kind: IC50

In [3]: df
Out[3]:
                                    molecule                              assay_target       measured
 0  Cc1cccc(Nc2nc(=O)c(F)cn2Cc2ccc(F)cc2)c1C  human P2X7 receptor (Homo sapiens, UniProt Q99572, R270H/Y155H)        < 10 nM
 1  COc1c(C)ccc(Nc2nc(=O)c(OC)cn2Cc2cc(F)cc(F)c2)c1C  human P2X7 receptor (Homo sapiens, UniProt Q99572, R270H/Y155H)        < 10 nM
 2  COc1cc(C)c(Nc2nc(=O)c(OC)cn2Cc2ccc(F)cc2)cc1C  human P2X7 receptor (Homo sapiens, UniProt Q99572, R270H/Y155H)        < 10 nM
 3  COc1cn(Cc2ccc(F)c(Cl)c2)c(Nc2cc(CN3CCCC3)ccc2C)nc1=O  human P2X7 receptor (Homo sapiens, UniProt Q99572, R270H/Y155H)  100 to 500 nM
 4  COc1cn(Cc2cc(F)cc(F)c2)c(Nc2cc(C)c(Cl)cc2C)nc1=O  human P2X7 receptor (Homo sapiens, UniProt Q99572, R270H/Y155H)        < 10 nM
 5  COc1cn(Cc2ccccc2)c(Nc2cc(N3CCCS3(=O)=O)ccc2C)nc1=O  human P2X7 receptor (Homo sapiens, UniProt Q99572, R270H/Y155H)   10 to 100 nM
 6  COc1cn(Cc2ccccc2)c(Nc2cccc(Oc3ccccn3)c2C)nc1=O  human P2X7 receptor (Homo sapiens, UniProt Q99572, R270H/Y155H)  100 to 500 nM
 7  COc1cn(CCCc2ccccc2)c(Nc2cccc(Cl)c2C)nc1=O  human P2X7 receptor (Homo sapiens, UniProt Q99572, R270H/Y155H)  100 to 500 nM
 8  COc1cn(Cc2cc(F)cc(F)c2)c(Nc2cccc(C(F)(F)F)c2C)nc1=O  human P2X7 receptor (Homo sapiens, UniProt Q99572, R270H/Y155H)   10 to 100 nM
 9  Cc1cc(C)c(Nc2nc(=O)c(C(=O)NC3CCOCC3)cn2Cc2ccccc2)cc1C  human P2X7 receptor (Homo sapiens, UniProt Q99572, R270H/Y155H)   10 to 100 nM
10  COc1cn(Cc2cc(F)cc(Cl)c2)c(Nc2cc(C)c(C)cc2C)nc1=O  human P2X7 receptor (Homo sapiens, UniProt Q99572, R270H/Y155H)        < 10 nM
11  Cc1c(Cl)cccc1Nc1nc(=O)c(C(=O)O)cn1Cc1ccccc1  human P2X7 receptor (Homo sapiens, UniProt Q99572, R270H/Y155H)  100 to 500 nM
12   COc1cn(Cc2ccccc2)c(Nc2cccc(CO)c2C)nc1=O  human P2X7 receptor (Homo sapiens, UniProt Q99572, R270H/Y155H)  100 to 500 nM
13  COc1cn(Cc2ccc(F)c(F)c2)c(Nc2cc3c(cc2C)OCCO3)nc1=O  human P2X7 receptor (Homo sapiens, UniProt Q99572, R270H/Y155H)   10 to 100 nM
14  COc1cc(C)c(Nc2nc(=O)c(OC)cn2Cc2cccc(F)c2)cc1OC  human P2X7 receptor (Homo sapiens, UniProt Q99572, R270H/Y155H)        < 10 nM
15  COCc1cccc(Nc2nc(=O)c(OC)cn2Cc2ccccc2)c1C  human P2X7 receptor (Homo sapiens, UniProt Q99572, R270H/Y155H)  100 to 500 nM
16  COc1cn(Cc2cccc(Cl)c2)c(Nc2cc(OCC(F)(F)F)ccc2C)nc1=O  human P2X7 receptor (Homo sapiens, UniProt Q99572, R270H/Y155H)   10 to 100 nM
17  Cc1c(Cl)cccc1Nc1nc(=O)c(CCO)cn1Cc1ccccc1  human P2X7 receptor (Homo sapiens, UniProt Q99572, R270H/Y155H)   10 to 100 nM
18  CCc1ccc(OC)cc1Nc1nc(=O)c(OC)cn1Cc1ccccc1  human P2X7 receptor (Homo sapiens, UniProt Q99572, R270H/Y155H)   10 to 100 nM
19  CCc1cc(OC)c(OC)cc1Nc1nc(=O)c(Cl)cn1Cc1ccccc1  human P2X7 receptor (Homo sapiens, UniProt Q99572, R270H/Y155H)        < 10 nM
20  COc1cn(Cc2ccccc2)c(N[C@@H]2CCCc3ccccc32)nc1=O  human P2X7 receptor (Homo sapiens, UniProt Q99572, R270H/Y155H)  100 to 500 nM
21  COc1cn(Cc2ccc(F)c(Cl)c2)c(Nc2cc(C)cc(C)c2C)nc1=O  human P2X7 receptor (Homo sapiens, UniProt Q99572, R270H/Y155H)   10 to 100 nM
22  COc1cn(Cc2cc(F)c(F)c(F)c2)c(Nc2cc(C)c(C)cc2C)nc1=O  human P2X7 receptor (Homo sapiens, UniProt Q99572, R270H/Y155H)        < 10 nM
23   COc1cn(Cc2ccccc2)c(Nc2cc(Cl)ccc2C)nc1=O  human P2X7 receptor (Homo sapiens, UniProt Q99572, R270H/Y155H)  100 to 500 nM
24  COc1cn(Cc2cccc(Cl)c2)c(Nc2cc(C)c(F)cc2C)nc1=O  human P2X7 receptor (Homo sapiens, UniProt Q99572, R270H/Y155H)        < 10 nM
25  COc1cc(C)cc(Nc2nc(=O)c(OC)cn2Cc2ccc(F)c(Cl)c2)c1C [Compound I-0465]  human P2X7 receptor (Homo sapiens, UniProt Q99572, R270H/Y155H)        < 10 nM
26  CCOc1cc(C)c(Nc2nc(=O)c(OC)cn2Cc2cccc(F)c2)cc1C  human P2X7 receptor (Homo sapiens, UniProt Q99572, R270H/Y155H)        < 10 nM
27  COc1cn(Cc2ccccc2)c(Nc2ccc(Cl)cc2Cl)nc1=O  human P2X7 receptor (Homo sapiens, UniProt Q99572, R270H/Y155H)  100 to 500 nM
28  Cc1cccc(Nc2nc(=O)c(C(=O)O)cn2Cc2ccccc2)c1Cl  human P2X7 receptor (Homo sapiens, UniProt Q99572, R270H/Y155H)   10 to 100 nM
29  COc1cn(Cc2ccccc2Cl)c(Nc2cc(C)c(Cl)cc2C)nc1=O  human P2X7 receptor (Homo sapiens, UniProt Q99572, R270H/Y155H)  100 to 500 nM
30      CCc1ccccc1Nc1nc(=O)c(OC)cn1Cc1ccccc1  human P2X7 receptor (Homo sapiens, UniProt Q99572, R270H/Y155H)   10 to 100 nM
31    COc1cn(Cc2ccccc2)c(Nc2cc(F)ccc2C)nc1=O  human P2X7 receptor (Homo sapiens, UniProt Q99572, R270H/Y155H)  100 to 500 nM
32  COc1cn(Cc2ccccc2)c(Nc2cc(N3CCN(C(=O)OC(C)(C)C)CC3)ccc2C)nc1=O  human P2X7 receptor (Homo sapiens, UniProt Q99572, R270H/Y155H)  100 to 500 nM
33  CCc1c(Cl)cccc1Nc1nc(=O)c(OC)cn1Cc1ccccc1  human P2X7 receptor (Homo sapiens, UniProt Q99572, R270H/Y155H)        < 10 nM
